The reported measurements were obtained from the supplement of paper PMC11732987.

Molecular target: USP5 (UniProt P45974)
Sequence (P45974 whole entry, the tested form may be a part): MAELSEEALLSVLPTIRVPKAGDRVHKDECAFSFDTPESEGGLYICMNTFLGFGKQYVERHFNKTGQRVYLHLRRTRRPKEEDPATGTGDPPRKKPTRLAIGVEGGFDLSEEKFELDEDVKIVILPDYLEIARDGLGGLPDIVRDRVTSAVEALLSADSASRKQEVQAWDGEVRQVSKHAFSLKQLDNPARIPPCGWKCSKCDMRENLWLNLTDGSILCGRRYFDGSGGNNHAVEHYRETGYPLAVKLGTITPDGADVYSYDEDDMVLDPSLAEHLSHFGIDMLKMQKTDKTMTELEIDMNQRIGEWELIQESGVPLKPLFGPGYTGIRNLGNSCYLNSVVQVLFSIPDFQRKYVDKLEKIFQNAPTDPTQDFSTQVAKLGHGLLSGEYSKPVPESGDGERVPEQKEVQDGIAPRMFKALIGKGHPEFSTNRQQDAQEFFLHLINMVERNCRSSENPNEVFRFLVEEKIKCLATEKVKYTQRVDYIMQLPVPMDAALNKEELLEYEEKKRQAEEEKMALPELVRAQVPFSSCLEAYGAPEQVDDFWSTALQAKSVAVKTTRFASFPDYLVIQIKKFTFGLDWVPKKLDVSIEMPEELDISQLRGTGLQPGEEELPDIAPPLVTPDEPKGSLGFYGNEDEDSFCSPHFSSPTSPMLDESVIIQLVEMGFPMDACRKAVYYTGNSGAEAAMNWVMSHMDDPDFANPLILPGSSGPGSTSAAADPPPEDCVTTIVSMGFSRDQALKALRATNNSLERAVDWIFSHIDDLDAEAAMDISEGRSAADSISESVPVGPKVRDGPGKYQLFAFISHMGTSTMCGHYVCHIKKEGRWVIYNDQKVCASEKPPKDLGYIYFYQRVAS
Assay: log2 ratio of Biotin-Ahx-Ub-VS probe labelling (fragment/DMSO); higher = less target engagement (more negative = stronger competition), active = hit call of the paper (q ≤ 0.05, log2 ratio ≤ -1)
Settings: compound concentration: 200 uM; treatment time: 3 h
Result type: log2 ratio of Biotin-Ahx-Ub-VS probe labelling

Req: Short answer please: log2 ratio of Biotin-Ahx-Ub-VS probe labelling, USP5 (UniProt P45974), entry COCC1C=CCCN1C(=O)CCl (configuration not stated)
Resp: 0.0548 (inactive)

Req: Short answer please: log2 ratio of Biotin-Ahx-Ub-VS probe labelling, USP5 (UniProt P45974), entry `O=C(CCl)N1CCN(C(=O)Nc2ccccc2)CC1`
Resp: 0.398 (inactive)

Req: Short answer please: log2 ratio of Biotin-Ahx-Ub-VS probe labelling, USP5 (UniProt P45974), entry CC1CN(c2ccc(NC(=O)CCl)cc2)CC(C)O1 (configuration not stated)
Resp: -0.0419 (inactive)

Req: Short answer please: log2 ratio of Biotin-Ahx-Ub-VS probe labelling, USP5 (UniProt P45974), entry Cc1ccc(CC(CO)CNC(=O)CCl)cc1 (configuration not stated)
Resp: -0.182 (inactive)

Req: Short answer please: log2 ratio of Biotin-Ahx-Ub-VS probe labelling, USP5 (UniProt P45974), entry `O=C(CCl)N1c2ccccc2NC(=O)C12CCCC2`
Resp: 0.581 (inactive)

Req: Short answer please: log2 ratio of Biotin-Ahx-Ub-VS probe labelling, USP5 (UniProt P45974), entry `Cc1ccc(CN(C)C(=O)CCl)o1`
Resp: 0.245 (inactive)

Req: Short answer please: log2 ratio of Biotin-Ahx-Ub-VS probe labelling, USP5 (UniProt P45974), entry `Cc1ccn2cc(CNC(=O)CCl)nc2c1.Cl`
Resp: 0.0336 (inactive)

====

Molecular target: USP15 (UniProt Q9Y4E8)
Sequence (whole entry): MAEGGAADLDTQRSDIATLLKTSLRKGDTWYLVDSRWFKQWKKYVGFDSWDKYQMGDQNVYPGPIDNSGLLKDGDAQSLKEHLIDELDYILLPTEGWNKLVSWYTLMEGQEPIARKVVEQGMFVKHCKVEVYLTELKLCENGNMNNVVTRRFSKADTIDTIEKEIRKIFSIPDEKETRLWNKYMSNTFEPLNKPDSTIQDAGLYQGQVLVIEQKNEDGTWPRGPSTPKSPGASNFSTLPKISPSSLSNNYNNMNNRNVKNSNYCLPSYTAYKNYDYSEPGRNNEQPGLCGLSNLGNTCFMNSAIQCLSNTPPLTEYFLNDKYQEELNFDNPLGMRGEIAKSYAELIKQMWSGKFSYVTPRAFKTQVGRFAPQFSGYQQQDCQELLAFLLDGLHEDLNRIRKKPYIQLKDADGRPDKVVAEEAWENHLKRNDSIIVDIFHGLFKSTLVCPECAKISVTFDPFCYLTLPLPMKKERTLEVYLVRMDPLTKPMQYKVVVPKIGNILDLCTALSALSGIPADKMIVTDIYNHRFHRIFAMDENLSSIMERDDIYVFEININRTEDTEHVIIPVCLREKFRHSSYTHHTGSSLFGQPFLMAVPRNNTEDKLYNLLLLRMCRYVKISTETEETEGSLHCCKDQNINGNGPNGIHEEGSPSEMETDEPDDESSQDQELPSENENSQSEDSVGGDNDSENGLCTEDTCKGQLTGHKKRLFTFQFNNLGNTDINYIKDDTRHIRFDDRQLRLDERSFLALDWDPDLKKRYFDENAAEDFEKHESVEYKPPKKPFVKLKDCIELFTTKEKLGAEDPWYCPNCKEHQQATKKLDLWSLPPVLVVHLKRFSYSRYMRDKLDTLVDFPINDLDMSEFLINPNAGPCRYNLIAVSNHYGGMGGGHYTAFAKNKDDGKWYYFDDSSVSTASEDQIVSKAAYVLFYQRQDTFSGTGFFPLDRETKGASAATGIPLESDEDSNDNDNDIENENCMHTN
Experiment: log2 ratio of Biotin-Ahx-Ub-VS probe labelling (fragment/DMSO); higher = less target engagement (more negative = stronger competition), active = hit call of the paper (q ≤ 0.05, log2 ratio ≤ -1)
Conditions: compound concentration: 200 uM; treatment time: 3 h
Write down the outcome that applies. Available outcomes: YES (active), NO (inactive)

Req: Status in this test for `O=C(CCl)N1CCC[C@@H]1c1ccon1` ?
Resp: NO

Req: Status in this test for `Cc1ccccc1C1(CNC(=O)CCl)CCOCC1` ?
Resp: NO

Req: Status in this test for `COCC[C@@H](NC(=O)CCl)c1ccccc1` ?
Resp: NO

Req: Status in this test for `Cl.O=C(CCl)N1CCc2ncncc2C1` ?
Resp: NO

Req: Status in this test for `CN(C)S(=O)(=O)c1ccccc1CNC(=O)CCl` ?
Resp: NO

Req: Status in this test for `Cc1ncc2c(n1)CCN(C(=O)CCl)C2` ?
Resp: NO

Req: Status in this test for O=C(CCl)N1CCCCCC1c1ncon1 (stereo not given) ?
Resp: NO

Req: Status in this test for `O=C(CCl)NCCC1=CCCCC1` ?
Resp: NO

Req: Status in this test for `O=C(CCl)N1CCOC2(CCC2)C1` ?
Resp: NO

Req: Status in this test for `Cc1ncsc1CCNC(=O)CCl` ?
Resp: NO

Req: Status in this test for `O=C(CCl)N1CCc2sccc2C1` ?
Resp: NO

Req: Status in this test for `N#Cc1ccccc1N1CCN(C(=O)CCl)CC1` ?
Resp: NO

Req: Status in this test for `Cc1cccc(NC(=O)CCl)c1C` ?
Resp: NO

Req: Status in this test for CC1Cc2ccccc2N1C(=O)CCl (stereo not given) ?
Resp: NO

Req: Status in this test for `Cc1conc1C1CN(C(=O)CCl)C1` ?
Resp: YES
